FYI, the data here is from ChEMBL document CHEMBL4732069.

- EXPERIMENT: Cytotoxicity against human HL-60 cells by resazurin dye based fluorescence assay
- Type: cell-based
Reported values of GI50 for individual entries
Write down the numeric answer in µM and omit the unit.

CC[C@@H](C(=O)[C@@H](C)[C@@H](O)[C@H](C)[C@@H]1O[C@@H]([C@@H](CC)C(=O)O)CC[C@@H]1C)[C@H]1O[C@]2(C=C[C@H](O)[C@]3(CC[C@@](C)([C@H]4CC[C@](O)(CC)[C@H](C)O4)O3)O2)[C@H](C)C[C@@H]1C | 393

Turning now to a further record.
Lab note: CC[C@@H](C(=O)[C@@H](C)[C@@H](O)[C@H](C)[C@@H]1O[C@@H]([C@@H](CC)C(=O)ONC(=O)c2ccccc2O)CC[C@@H]1C)[C@H]1O[C@]2(C=C[C@H](OC(C)=O)[C@]3(CC[C@@](C)([C@H]4CC[C@](O)(CC)[C@H](C)O4)O3)O2)[C@H](C)C[C@@H]1C gave GI50 of 203
